Every entry's value here was drawn from patent US11878975B2.

- assay system: human TLR7 (Homo sapiens, UniProt Q9NYK1)
- Sequence (Q9NYK1 27-1049): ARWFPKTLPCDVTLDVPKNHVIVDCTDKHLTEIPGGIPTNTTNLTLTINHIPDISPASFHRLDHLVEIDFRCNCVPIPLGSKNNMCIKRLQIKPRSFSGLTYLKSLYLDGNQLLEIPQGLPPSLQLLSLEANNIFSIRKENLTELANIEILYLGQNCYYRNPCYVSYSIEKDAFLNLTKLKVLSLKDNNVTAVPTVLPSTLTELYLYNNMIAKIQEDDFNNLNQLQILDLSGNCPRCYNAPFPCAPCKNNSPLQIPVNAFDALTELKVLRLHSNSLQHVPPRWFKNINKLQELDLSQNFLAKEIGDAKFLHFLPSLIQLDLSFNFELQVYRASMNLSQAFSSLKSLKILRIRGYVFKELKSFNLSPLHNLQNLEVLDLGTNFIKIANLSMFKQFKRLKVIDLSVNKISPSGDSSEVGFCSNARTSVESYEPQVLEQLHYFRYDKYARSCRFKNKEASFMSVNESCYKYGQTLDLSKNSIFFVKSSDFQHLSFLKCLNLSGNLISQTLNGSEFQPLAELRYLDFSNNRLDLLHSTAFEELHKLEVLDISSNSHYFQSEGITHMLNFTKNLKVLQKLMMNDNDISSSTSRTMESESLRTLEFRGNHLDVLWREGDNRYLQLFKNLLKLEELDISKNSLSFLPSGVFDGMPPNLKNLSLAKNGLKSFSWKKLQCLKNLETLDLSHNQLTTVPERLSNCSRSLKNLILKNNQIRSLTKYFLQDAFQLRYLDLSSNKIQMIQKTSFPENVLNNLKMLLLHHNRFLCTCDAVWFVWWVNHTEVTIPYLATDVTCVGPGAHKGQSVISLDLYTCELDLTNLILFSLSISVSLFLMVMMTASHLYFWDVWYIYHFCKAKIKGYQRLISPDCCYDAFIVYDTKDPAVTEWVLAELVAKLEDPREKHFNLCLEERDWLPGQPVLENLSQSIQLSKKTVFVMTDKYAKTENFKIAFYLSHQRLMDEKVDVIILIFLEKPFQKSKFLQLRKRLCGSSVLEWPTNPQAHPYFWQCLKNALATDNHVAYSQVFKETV
- assay explanation: TLR7 inhibition reporter assay (HEK-Blue cells, SEAP reporter, gardiquimod stimulation)
- measurement conditions: HEK-Blue cells overexpressing human TLR7, SEAP reporter, gardiquimod 7.5 μM
hey, just use Y if measured IC50 is less than 4 nM, otherwise N

Cc1cc(-c2[nH]c3ccc(C4CCC(N)CC4)cc3c2C(C)C)cc(C)n1 (stereo not shown) : Y
COc1cc(-c2[nH]c3ccc(CCC4CN(C(=O)CN(C)C)C4)cc3c2C(C)C)cn2ncnc12 : Y
CNC(=O)CNC1CCC(c2ccc3[nH]c(-c4cc(C)c5ncnn5c4)c(C(C)C)c3c2)CC1 (single isomer, unassigned) [Example 163] : Y
Cc1cc(-c2[nH]c3ccc(C4CCC(NCC(C)(C)O)CC4)cc3c2C(C)C)cn2ncnc12 (stereo not shown) : Y
Cc1cc(-c2[nH]c3ccc(C4CCCN(C(=O)CN5CCOCC5)C4)cc3c2C(C)C)cc(C)n1 (stereo not shown) [Example 196] : N

Consider the record given below.
In: Bench note: check whether Cc1c(-c2[nH]c3ccc(C4CN(CC(=O)N(C)C)CCO4)cc3c2C(C)C)cn2ncnc2c1C (stereo not shown) [Example 312] shows IC50 below 4 nM
Out: N

* * *

- assay system: human TLR7 (Homo sapiens, UniProt Q9NYK1)
- assay explanation: TLR7 inhibition reporter assay (HEK-Blue cells, SEAP reporter, gardiquimod stimulation)
- measurement conditions: HEK-Blue cells overexpressing human TLR7, SEAP reporter, gardiquimod 7.5 μM
Label key: criterion met means IC50 under 5 nM; criterion not met means IC50 of 5 nM or more.

CNCC(=O)N1CCOC(c2ccc3[nH]c(-c4cn5ncnc5c(C)c4C)c(C(C)C)c3c2)C1 (centres unmarked) [Example 340] : criterion met
Cc1c(-c2[nH]c3ccc(C4CCC(N(C)CCS(C)(=O)=O)CC4)cc3c2C(C)C)cn2ncnc2c1C (centres unmarked) [Example 151] : criterion met
Cc1cc(-c2[nH]c3ccc([C@@H]4C[C@H]4C(=O)NC4CC5CCN4CC5)cc3c2C(C)C)ccn1 (some centres unmarked) [Example 461] : criterion not met

In: is_below(IC50, 5 nM) for Cc1cc(-c2[nH]c3ccc(C4CN(CC(N)=O)CCO4)cc3c2C(C)C)cc(C)n1 (centres unmarked) [Example 324] ?
Out: criterion not met

In: Just wondering, is IC50 of COc1cc(-c2[nH]c3ccc(C4CCC(N5CC(O)C5)CC4)cc3c2C(C)C)cn2ncnc12 (single isomer, unassigned) [Example 22] below 5 nM?
Out: criterion met

In: Would you kindly verify if IC50 of Cc1cc(-c2[nH]c3ccc(C4CCC(CN(C)C)CC4)cc3c2C(C)C)cc(C)n1 (centres unmarked) [Example 176] is strictly less than 5 nM?
Out: criterion not met

In: IC50 strictly < 5 nM for this molecule? CCc1c(-c2ccc(OC)c(OC)c2)[nH]c2ccc(CN3CC4CNCC4C3)cc12 (centres unmarked) [Example 391]
Out: criterion not met

* * *

- assay system: human TLR8 (Homo sapiens, UniProt Q9NR97)
- Sequence (Q9NR97 27-1041): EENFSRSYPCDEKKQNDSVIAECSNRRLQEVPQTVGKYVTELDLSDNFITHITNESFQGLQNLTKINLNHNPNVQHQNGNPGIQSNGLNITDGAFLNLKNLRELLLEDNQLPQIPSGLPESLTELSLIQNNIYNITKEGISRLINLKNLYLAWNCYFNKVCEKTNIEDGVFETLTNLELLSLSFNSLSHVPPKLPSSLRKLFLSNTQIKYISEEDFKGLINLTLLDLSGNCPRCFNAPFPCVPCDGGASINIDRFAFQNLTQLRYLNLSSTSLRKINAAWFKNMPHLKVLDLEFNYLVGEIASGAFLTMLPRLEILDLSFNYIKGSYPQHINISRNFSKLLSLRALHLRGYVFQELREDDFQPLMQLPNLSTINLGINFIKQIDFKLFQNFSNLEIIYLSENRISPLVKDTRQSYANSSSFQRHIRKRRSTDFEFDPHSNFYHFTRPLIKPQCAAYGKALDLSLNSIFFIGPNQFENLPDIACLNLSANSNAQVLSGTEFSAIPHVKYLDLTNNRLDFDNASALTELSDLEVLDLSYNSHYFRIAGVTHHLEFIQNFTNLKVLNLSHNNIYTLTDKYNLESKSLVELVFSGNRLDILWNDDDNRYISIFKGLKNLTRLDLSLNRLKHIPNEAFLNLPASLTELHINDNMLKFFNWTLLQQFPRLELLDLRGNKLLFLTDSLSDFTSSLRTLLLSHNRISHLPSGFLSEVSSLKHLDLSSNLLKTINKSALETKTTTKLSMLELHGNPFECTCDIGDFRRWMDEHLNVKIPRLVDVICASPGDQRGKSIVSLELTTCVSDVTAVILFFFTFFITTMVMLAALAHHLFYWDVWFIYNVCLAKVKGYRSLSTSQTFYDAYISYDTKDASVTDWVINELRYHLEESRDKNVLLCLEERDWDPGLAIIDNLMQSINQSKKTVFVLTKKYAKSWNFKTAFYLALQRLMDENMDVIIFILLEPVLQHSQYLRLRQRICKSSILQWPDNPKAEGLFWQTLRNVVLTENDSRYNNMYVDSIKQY
- assay explanation: TLR8 inhibition reporter assay (HEK-Blue cells, SEAP reporter, R848 stimulation)
- measurement conditions: HEK-Blue cells overexpressing human TLR8, SEAP reporter, R848 15.9 μM
- Excerpt: TLR7/8/9 Inhibition Reporter Assays HEK-Blue™-cells (Invivogen) overexpressing human TLR7, TLR8 or TLR9 receptors were used for screening inhibitors of these receptors using an inducible SEAP (secreted embryonic alkaline phosphatase) reporter gene under the control of the IFN-β minimal promoter fused to five NF-κB and AP-1-binding sites. […]
property measured: IC50 (nM)
One number for each entry, in nM.

Guide cases for IC50, answers given:
COc1cc(-c2[nH]c3ccc(C4CCC(N5CC(C)OC(C)C5)CC4)cc3c2C(C)C)cn2ncnc12 (stereo not drawn) : 7.7
Cc1cc(-c2[nH]c3ccc(C4CCNC4)cc3c2C(C)C)cc(C)n1 (stereo not drawn) : 0.5
COc1cc(-c2[nH]c3ccc(C4CN(CC(=O)N(C)C)CCO4)cc3c2C(C)C)cn2ncnc12 (stereo not drawn) : 13
Cc1cc(-c2[nH]c3ccc(C4CCC(N5CCCC(F)(F)C5)CC4)cc3c2C(C)C)cn(C)c1=O (stereo not drawn) [Example 468] : 219

Kindly give each listed record's IC50.
1. Cc1cc(-c2[nH]c3ccc(C4CN(CCS(C)(=O)=O)CCO4)cc3c2C(C)C)cc(C)n1 (stereo not drawn) [Example 353]
2. COc1cc(-c2[nH]c3ccc(C4CCC(N5CC[C@H](N(C)C)C5)CC4)cc3c2C(C)C)cn2ncnc12 (stereo partly drawn) [Example 33]
3. COc1cc(-c2[nH]c3ccc(C4CCC(N(C)OC)CC4)cc3c2C(C)C)cn2ncnc12 (stereo not drawn) [Example 99]
4. COc1cc(-c2[nH]c3ccc(C4CCC(NC(C)=O)CC4)cc3c2C(C)C)cn2ncnc12 (single isomer, unassigned) [Example 116]
5. CNC(=O)CNC1CCC(c2ccc3[nH]c(-c4cc(C)nc(C)c4)c(C(C)C)c3c2)CC1 (single isomer, unassigned) [Example 179]
6. Cc1cc(-c2[nH]c3ccc(C4CN(CC(C)(C)O)CCO4)cc3c2C(C)C)cn2ncnc12 (single isomer, unassigned) [Example 356]
7. Cc1cc(-c2[nH]c3ccc(C4CCC(N5CCOCC5)CC4)cc3c2C(C)C)cc(C)n1 (stereo not drawn) [Example 498]

Out:
1. 31
2. 3.4
3. 53
4. 61
5. 3.5
6. 4.6
7. 18

# per-item lookup of IC50; items listed below
1. Cc1cc(-c2[nH]c3ccc(C4CNCCO4)cc3c2C(C)C)cn2ncnc12 (stereo not drawn) [Example 281]
2. Cc1cc(-c2[nH]c3ccc(CCN4CCCCC4)cc3c2C(C)C)cn(C)c1=O
3. COc1cc(-c2[nH]c3ccc(C4CNC(C)(C)CO4)cc3c2C(C)C)cn2ncnc12 (stereo not drawn) [Example 368]
4. COc1cc(-c2[nH]c3ccc(C4CCC(NCC(N)=O)CC4)cc3c2C(C)C)cn2ncnc12 (stereo not drawn) [Example 107]

Out:
[1.1, 3, 1.6, 1.5]

* * *

Would you kindly list IC50 for each of these compounds?
- assay system: human TLR8 (Homo sapiens, UniProt Q9NR97)
- assay explanation: TLR8 inhibition reporter assay (HEK-Blue cells, SEAP reporter, R848 stimulation)
- measurement conditions: HEK-Blue cells overexpressing human TLR8, SEAP reporter, R848 15.9 μM
Answers are plain numbers, in nM.

CC(C)c1c(-c2ccnc3[nH]ncc23)[nH]c2ccc(C3CCCNCC3)cc12 (stereo not shown) : 4.3
Cc1cc(-c2[nH]c3ccc(CC4CCCN4C4CCOCC4)cc3c2C(C)C)cn2ncnc12 (stereo not shown) : 1.4

Hi there! I need IC50 for each item below, if you can.
1. COc1cc(-c2[nH]c3ccc(C4CCC(N5C[C@@H](C)O[C@@H](C)C5)CC4)cc3c2C(C)C)cn2ncnc12 (stereo partly shown)
2. Cc1c(-c2[nH]c3ccc(C4CCC(NCC(=O)N(C)C)CC4)cc3c2C(C)C)cn(C)c(=O)c1C (stereo not shown) [Example 480]

Out:
1: 1.2; 2: 6.3
